Test system: TNFα
Test: PBMC assay, LPS-induced TNFα (Meso Scale)
Type: cell-based
Conditions: Homo sapiens, compound at 1 μM, PBMCs, 100 ng/mL LPS 18-24 hrs
Procedure: FIG. 3 represents the activity against TNFα in peripheral blood mononuclear cells (PBMCs), plated in 96 well plates and pretreated with compound for 1 hour and then induced with 100 ng/mL LPS for 18-24 hrs. Cytokines in the media were measured according to MesoScale protocol. The negative control wells were treated with DMSO. Compound activity is measured as a percentage of LPS-induced activity. […] Compound activity was measured as fold difference from the DMSO control. […]
Provide the reported inhibition at 1 µM of each item.
One number for each entry, in %.

State recorded inhibition at 1 µM for all listed molecules.
1. O=C1COC[C@H](N2Cc3c(OCc4ccc(CN5CCOCC5)cc4)cccc3C2=O)C(=O)N1
2. Cc1cnc(Nc2ccc(OCCCNC(=O)NCc3ccc(COc4cccc5c4CN([C@H]4CCCC(=O)NC4=O)C5=O)cc3)cc2)nc1Nc1cccc(S(=O)(=O)NC(C)(C)C)c1

27
84
